# protocol notes: Pharmacokinetic parameters, i.v. and p.o.
# Type: in vivo
# condition notes: plasma; p.o.; oral bioavailability
test readout: bioavailability (%)
Expressed in %, but write only the number.

Name the reported bioavailability value associated with the compound "[2H]C([2H])([2H])Oc1cc2cc(C(=O)CCC(=O)O)sc2cc1OC([2H])([2H])[2H]"
93.8

###

# protocol notes: Pharmacokinetic parameters, i.v. and p.o.
# Assay type: in vivo
# condition notes: plasma, iv; average of three runs; read-out: Vz
test readout: Vd (L/kg)
Expressed in L/kg, but write only the number.

Name the reported Vd value associated with the molecule "[2H]C([2H])([2H])Oc1cc2cc(C(=O)CCC(=O)O)sc2cc1OC([2H])([2H])[2H]"
1.45

###

# protocol notes: Pharmacokinetic parameters, i.v. and p.o.
# Assay type: in vivo
# condition notes: plasma, iv; average of three runs
test readout: clearance
Units required after the number.

Name the reported clearance value associated with the molecule "[2H]C([2H])([2H])Oc1cc2cc(C(=O)CCC(=O)O)sc2cc1OC([2H])([2H])[2H]"
22.5 mL/min/kg

###

# protocol notes: Pharmacokinetic parameters, i.v. and p.o.
# Assay type: in vivo
# condition notes: plasma, po; average of three runs
test readout: half-life (h)
Expressed in h, but write only the number.

Name the reported half-life value associated with the compound "[2H]C([2H])([2H])Oc1cc2cc(C(=O)CCC(=O)O)sc2cc1OC([2H])([2H])[2H]"
1.35

###

# protocol notes: Pharmacokinetic parameters, i.v. and p.o.
# Format: in vivo
# condition notes: plasma, po; average of three runs
test readout: AUC(0-inf) (ng·h/mL)
Expressed in ng·h/mL, but write only the number.

Name the reported AUC(0-inf) value associated with the compound "[2H]C([2H])([2H])Oc1cc2cc(C(=O)CCC(=O)O)sc2cc1OC([2H])([2H])[2H]"
2120

###

# protocol notes: Pharmacokinetic parameters, i.v. and p.o.
# Type: in vivo
# condition notes: plasma, iv; average of three runs
test readout: AUC(0-inf) (ng·h/mL)
Expressed in ng·h/mL, but write only the number.

Name the reported AUC(0-inf) value associated with the molecule "[2H]C([2H])([2H])Oc1cc2cc(C(=O)CCC(=O)O)sc2cc1OC([2H])([2H])[2H]"
750

These entries and their values trace back to paper PMC12160547.
